Measured values drawn from PubChem BioAssay (NCI) for this set.

test system: EKVX NSCLC; experiment: NCI-60 one-dose screen, 48 h (100 = growth as untreated, 0 = no growth, -100 = all killed); conditions: 10 µM unless noted
Compounds without any hit were thinned out: in the full panel of roughly 83,000, 20% have a hit.
Measurement Kind: growth (%)
The response must be a number in % with no trailing unit.

Here "S=C(S)Oc1cccc2cccnc12" was tested on EKVX NSCLC, and its growth came to 115

Field growth (EKVX NSCLC), entry "O=C(Nc1cccc(N=Cc2c(O)ccc3ccccc23)c1)c1ccccc1" : 93.8

Fill in: EKVX NSCLC growth for "CSc1nc(N)c2[nH]c(-c3cc4ccccc4[nH]c3=O)nc2n1" = 103
